Target: T1, His-LXRβ/FLAG-RXRα heterodimer (ligand binding domains of human LXRβ and human RXRα) (human) (UniProt P55055)
T1 sequence 1: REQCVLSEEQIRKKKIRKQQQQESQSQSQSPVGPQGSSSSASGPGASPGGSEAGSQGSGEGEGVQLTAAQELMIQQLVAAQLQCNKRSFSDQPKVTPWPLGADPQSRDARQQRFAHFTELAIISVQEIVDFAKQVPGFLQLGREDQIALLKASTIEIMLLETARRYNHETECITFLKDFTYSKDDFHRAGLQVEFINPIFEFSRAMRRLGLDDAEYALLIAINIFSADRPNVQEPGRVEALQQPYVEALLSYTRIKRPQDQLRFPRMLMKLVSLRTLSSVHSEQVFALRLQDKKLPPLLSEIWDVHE
T1 sequence 2: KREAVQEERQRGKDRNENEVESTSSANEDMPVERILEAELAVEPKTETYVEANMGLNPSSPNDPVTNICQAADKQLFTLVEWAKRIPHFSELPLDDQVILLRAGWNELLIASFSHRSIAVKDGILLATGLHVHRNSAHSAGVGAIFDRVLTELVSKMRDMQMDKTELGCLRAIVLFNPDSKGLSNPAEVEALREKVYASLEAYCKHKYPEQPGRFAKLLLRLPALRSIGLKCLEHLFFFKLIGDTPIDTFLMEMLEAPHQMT
Experiment: FRET (665/620 nm), anti-His tag antibody + streptavidin, biotinylated peptide; with Compound B, relative to DMSO-only control
No end group written: not given here. *: point of attachment. Biotin = O=C1N[C@H]2[C@H](CS[C@H]2CCCCC(=O)*)N1
measure: % of control

For orientation, consider the following solved cases.
INSERT INTO assay_data (binder, result) VALUES
  ('Biotin-KNPTSCSRRFYQLTKLLDSVQPIAR [PNRC peptide … (aa 848-872)]', '107 % of control'),
  ('Biotin-SPAMREAPTSLSQLLDNSGAPNVTIKPPGL [ASC-2 NR-2 peptide … (LXXLL motif on the C-terminal side of ASC-2)]', '116 % of control'),
  ('Biotin-CCFCGEDHPRQGSILYSLLTSSKQT (cysteine pairing not given here) [DAX1 peptide … (aa 132-156)]', '120 % of control'),
  ('Biotin-KQEPVSPKKKENALLRYLLDKDDTK [TIF2 NRB2 peptide … (aa 731-755)]', '124 % of control'),
  ('Biotin-GHGEDFSKVSQNPILTSLLQITGNG [TRAP220 peptide … (aa 590-614)]', '116 % of control');

Data point: Biotin-HSKASWAEFSILRELLAQDVLCD [PERC NRB2 peptide … (aa 332-354)] ; % of control = 115 % of control

The reported % of control of the binder Biotin-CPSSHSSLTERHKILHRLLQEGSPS [SRC-1-2 peptide … (the second LXXLL motif from the N-terminal side of SRC-1)] was 119 % of control

What the record says about Biotin-SPKKKENNALLRYLLDRDDPSDALSK [ACTR NRB3 peptide … (aa 728-753)] : % of control is 103 % of control
